Target: T1, ProQ NTD (FinO domain) (Escherichia coli, UniProt P45577 1-130)
T1 sequence: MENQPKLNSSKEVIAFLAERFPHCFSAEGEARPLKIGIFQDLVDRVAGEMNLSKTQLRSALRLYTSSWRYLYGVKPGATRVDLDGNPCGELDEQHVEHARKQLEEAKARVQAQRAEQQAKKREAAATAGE
Assay: EMSA
Kindly apply the following: rule met if Kd is less than 8 nM, rule not met in every other case.

Please indicate whether the reported Kd of malM-3'-5U (structured_RNA) RNA: GCUUUAUCAGCAGUGUAAAAGGCAAGGGGUAAUUACGCCCCACAGUGCUGAUUUUGCAACAACUGGUGCGUCUCCUGGCGCACCUUUUU is strictly below 8 nM.
rule not met

Please indicate whether the reported Kd of malM-3'-bulge (structured_RNA) RNA: GCUUUAUCAGCAGUGUAAAAGGCAAGGGGUAAUUACGCCCCACAGUGCUGAUUUUGCAACAACUGGUGAAACGUCUCCUGGCGCACCUUUUUUU is strictly below 8 nM.
rule not met

Please indicate whether the reported Kd of cspE81-3' (structured_RNA) RNA: GGCCCUUCUGCUGCAAACGUAAUCGCUCUGUAAGAUACGUCAGCAAGAAUUCAAAACCCGCUUAAUCAGCGGGUUUUUUUU is strictly below 8 nM.
rule met

Please indicate whether the reported Kd of cspE-3'-AtoU (structured_RNA) RNA: GUAAGAUACGUCAGCAAGAAUUCUUUUCCCGCUUAAUCAGCGGGUUUUUUUU is strictly below 8 nM.
rule not met
